TEST_NAME: yeast display, Sf9 membrane polyspecificity reagent, FACS + sequencing; frameworks hold sequencing errors

[
  {
    "MACROMOLECULE_SEQUENCE": "QVQLVESGRGLVQAGGSLRLSCAASGLTFGHYAMGGYRQAPGKERELVAAITSGGRTYYADSVKGRFTISRDNAKNTVYLQMNSLKPEDTAVYYCATRGPRYRYYYWGQGTQVTVSS",
    "polyreactivity (PSR sort gate)": "high polyreactivity"
  },
  {
    "MACROMOLECULE_SEQUENCE": "QVQLVESGGGLVQAGGSLRISCAASGYIFAVYAMGWYRQAPGKEREFVAVITWRGGSTYYADSVKGRFTISRDNAKNTVYLQMNSLKPEDTAVYYCAARWHFLTSSRFDYWGQGTQVTVSS",
    "polyreactivity (PSR sort gate)": "high polyreactivity"
  }
]

---

TEST_NAME: yeast display, Sf9 membrane polyspecificity reagent, FACS + sequencing; frameworks hold sequencing errors
MEASURED_QUANTITY: polyreactivity (PSR sort gate)

Some sequences with known polyreactivity (PSR sort gate) results, for comparison:
[
  {
    "MACROMOLECULE_SEQUENCE": "QVQLVESGGGLVQAGGSLRLSCAASGRTFFTYAMGWYRQAPGKERELVAAITYRGGGTYYADSVKGRFTISRDNAKNTVYLQMNSLKPEDTAVYYCAAEYWVGVYLYDYWGQGTQVTVSS",
    "polyreactivity (PSR sort gate)": "high polyreactivity"
  },
  {
    "MACROMOLECULE_SEQUENCE": "QVQLVESGGGLVQAGASLRLSCAASGRTFSNYEMGSYRQAPGKERELVAAISGTGGTTYYADSVKGRFTISRVNEKNTVYLQMNSLKPEDTAVYYCAARSHTGYFPPSYYSGQGTQVTVSS",
    "polyreactivity (PSR sort gate)": "high polyreactivity"
  },
  {
    "MACROMOLECULE_SEQUENCE": "QVQLVESGGGLVQAGGSLRLSCAASGSTSAAYAMGWYRQAPGKERELVAAISKRGGSTYYADSVKGRFTISRDNAKNTVYLQMNSLKPEDTAVYYCNKYHFPGYWSRFDYWGQGTQVTVSS",
    "polyreactivity (PSR sort gate)": "high polyreactivity"
  },
  {
    "MACROMOLECULE_SEQUENCE": "QVQLVESGGGLVQAGGSLRLSCAASGRIFAYNAMGWYRQAPGKEREVVAAIDSGGDTNYADSVKGRFTISRDNAKNTVYLQMNSLKPEDTAVYYCNVTYSGQATFAYTDSARYDYWGQGTQVTVSS",
    "polyreactivity (PSR sort gate)": "low polyreactivity"
  },
  {
    "MACROMOLECULE_SEQUENCE": "QVQIVDSGGGLVQAGGSLRISCAASGYISRVYAMGWYRQAPRKERELVAAITRSTTYYADSVKGRFTISRDNAKNTVYLQMNSLKPEDSAVYYCNAVWASPGQVRMYYWGQGTQVNVSS",
    "polyreactivity (PSR sort gate)": "high polyreactivity"
  },
  {
    "MACROMOLECULE_SEQUENCE": "QVQLVESGGGLVQAGGSLRLSCAATGRTFAVYAMGWYRQAPGKERELVAAISSGGSTYYADSVKGRFTIARDNAKNTVYLQMNSLKPEDTAVYYCTARWGYRRGYWGQGTQVTVSS",
    "polyreactivity (PSR sort gate)": "high polyreactivity"
  },
  {
    "MACROMOLECULE_SEQUENCE": "QVQLVESAGGLVQAGASLRLSCDASGSTFVYYDMGWYRQAPGKERELVASISWSGGSTSYSDSVKGRFTISRDNAKNTVYLQMNSLKPEDTAVYYCNKSNPDYDGLAIHAFDYWGQGTQVTVSS",
    "polyreactivity (PSR sort gate)": "low polyreactivity"
  },
  {
    "MACROMOLECULE_SEQUENCE": "QVQLVESGGGLVQAGGSLRLSCAASGFSFYYNTMGWYRQAPWTERELVAAITRSFGSTYYADSVKGSFTIARDHAQNTVYVQMNSLKPEDTAVYFCAARAYYFPKLPADYYWGQGTQVSVSS",
    "polyreactivity (PSR sort gate)": "high polyreactivity"
  },
  {
    "MACROMOLECULE_SEQUENCE": "QVQLVESGGGLVQAGGSLRLICAASGSIFADYAMGWYRQAPGKERELVAAITGGTSTYYADSVKGRFTISRDNAKNTVYLQMNSLKPEDTAVYYCAAYYYWEFSYYEYDYWGQGSQVTVSS",
    "polyreactivity (PSR sort gate)": "low polyreactivity"
  },
  {
    "MACROMOLECULE_SEQUENCE": "QVQLVESGGGLVQAGGSLSLICAASGGTFYKYAMGWYRQAPGKERELDAAISRSGGSTYYADSVKGRFTISRDNAKNTVYLQINRLKPEDTAVYYCKAYGSYWDFDYWGQRTQVTVSS",
    "polyreactivity (PSR sort gate)": "high polyreactivity"
  }
]

# next sequence below
Exercise: # input sequence: "QVQLVESGGGLVQAGGSLRLSCSASGFTSRKNAMGWYRQAPGKERELVAAITQSSGRTYYADSVKGRFTISRDNAKNTVYLQMNSLKPEDTAVYYCAARRGGEDDYWGQGTQVTVSS" ; wanted: its polyreactivity (PSR sort gate)
Solution: low polyreactivity

---

TEST_NAME: yeast display, Sf9 membrane polyspecificity reagent, FACS + sequencing; frameworks hold sequencing errors
MEASURED_QUANTITY: polyreactivity (PSR sort gate)

[
  {
    "MACROMOLECULE_SEQUENCE": "QVQLVESGGGLVQAGGSLRLSCAASGSIFADNAKGWYRQAPGKEMDLVAAITWSGGSTYYADSVKGRFTISRDNAKNTVYLQMNSLKPEDTAVYYCNADDAVEYSYGGGTEFYYWGQGTQVTVSS",
    "REPORTED_VALUE": "low polyreactivity"
  },
  {
    "MACROMOLECULE_SEQUENCE": "QVQLVESGGGLVQAGGSLRLSCAASGNNFWWNDMGWYRHAPGKERELVAAISWRGSSTYYADSVKGRFTISRDNAKYTVYLQMNSLKPEDSAVYYCAKPDRTCWLDGDYWGQGTQVTVSS",
    "REPORTED_VALUE": "low polyreactivity"
  }
]

---

TEST_NAME: yeast display, Sf9 membrane polyspecificity reagent, FACS + sequencing; frameworks hold sequencing errors
MEASURED_QUANTITY: polyreactivity (PSR sort gate)

Some sequences with known polyreactivity (PSR sort gate) results, for comparison:
[
  {
    "MACROMOLECULE_SEQUENCE": "QVQLVESGGGLVQAGGSLRLSCAASGRIFAYYTMGWYRQAPGKERELVAAITSRGGSTYYADSVKGRFTISRDNAKKTVYLQMNSLKPEDTAVYYCAALRPSNVDYWGQGTQVTVSS",
    "polyreactivity (PSR sort gate)": "high polyreactivity"
  },
  {
    "MACROMOLECULE_SEQUENCE": "QVQLVESGGGLVQAGGSLRLSCAASGFIFVKNAMGWYRQAPGKERELVATINCGSSTTYADSVKGRFTISRDNAKNTVYLQMNSLKPEDTAVYYCNADDVENWTEYDYWGQGTQVTVSS",
    "polyreactivity (PSR sort gate)": "low polyreactivity"
  },
  {
    "MACROMOLECULE_SEQUENCE": "QVQLVESGGGLVQAGGSLRLSCAASGITFYYYAMGWYTQAPGKERELVAAISDNGSRTYYADSVKGRFTISRDNAQNTVYLQMNSLKPEDTAVYYCAAEGSYGYDYWGQGTQVTVSS",
    "polyreactivity (PSR sort gate)": "high polyreactivity"
  },
  {
    "MACROMOLECULE_SEQUENCE": "QVQLVESGGGLVQAGGSLRLSCAASGRTFRCYAMGWDRQAPGKERELVAAITYSVGSTYYADSVKGRLTISRDTAKNTVYLQMNSLKPEDTAVYYCAADSYPYRYRGKYSRLDYCGQGTQVTVSS",
    "polyreactivity (PSR sort gate)": "low polyreactivity"
  }
]

# next sequence below
Exercise: # input sequence: "QVQLVESGGGLVQAGGSLRLSCAASGRTLVYNAMGWYRQAPGKERELVAAITTDGGDTYYADSVKGRFTISRDNAKNTVYLQMNSLKPEDTAVYYCAADYVALYYWYDYWGQGTQVTVSS" ; wanted: its polyreactivity (PSR sort gate)
Solution: low polyreactivity

---

TEST_NAME: yeast display, Sf9 membrane polyspecificity reagent, FACS + sequencing; frameworks hold sequencing errors
MEASURED_QUANTITY: polyreactivity (PSR sort gate)

[
  {
    "MACROMOLECULE_SEQUENCE": "QQQLVESDVGLDQAGRSHRLSCAASGFIFAPNAMGWYRQAPGKERELVAAITYRGGGTYYADSVKGRFTISRDNAKNTVYLQMNSLKPEDTAVYYCAAGYDSYYRGSYNYWGQGTQVTVSS",
    "polyreactivity (PSR sort gate)": "high polyreactivity"
  },
  {
    "MACROMOLECULE_SEQUENCE": "QVQLVESGGGLVQAGGSLRLSCAASGSTLYAYAMGWYRQAPGKERELVAAISRSGGSTYYAYSVKGRFTISRDNAKNTVYLQMNSLKPEDTAVYYCNAYYRYFRSIYDSWGQGTQVTVSS",
    "polyreactivity (PSR sort gate)": "high polyreactivity"
  },
  {
    "MACROMOLECULE_SEQUENCE": "QVQLVESGGGLVQAGGSLRLSCAASGRIFYPYSMGWYRQAPGKERELVAAIRRSGVDTYYADSVKGRFTISRDNAKNTVYLQMNSLKPEDTAVYYCAADPYWFFPHYDSWGQGTQVTVSS",
    "polyreactivity (PSR sort gate)": "low polyreactivity"
  },
  {
    "MACROMOLECULE_SEQUENCE": "QVQLVESVGGLVQAGGSLRLTCAASGSIFYVYAMGWYRQAPGKERELVANIRDGGITYADSVKGRFTISRDNAKNTVYLQMNSLKPEDTAVYYCARDDTSPGYGDQSSNAAYYYRGQGTQVTVSS",
    "polyreactivity (PSR sort gate)": "low polyreactivity"
  }
]

Exercise: # input sequence: "QVQLVESGGGLVQAGGSLSLSCAASGSISDVYPMGGYRQAPRKERELVAAITSGASTYYADSVKGRFTISRDNAKNTVYLQLNSLKTEDTAVYYCAAGYSDWYYADYNSWGQGTQVTVSS" ; wanted: its polyreactivity (PSR sort gate)
Solution: low polyreactivity
